Reported pIC50 values follow for various molecules
Target: human MRGPRX2 (Homo sapiens)
Sequence (Q96LB1 whole entry): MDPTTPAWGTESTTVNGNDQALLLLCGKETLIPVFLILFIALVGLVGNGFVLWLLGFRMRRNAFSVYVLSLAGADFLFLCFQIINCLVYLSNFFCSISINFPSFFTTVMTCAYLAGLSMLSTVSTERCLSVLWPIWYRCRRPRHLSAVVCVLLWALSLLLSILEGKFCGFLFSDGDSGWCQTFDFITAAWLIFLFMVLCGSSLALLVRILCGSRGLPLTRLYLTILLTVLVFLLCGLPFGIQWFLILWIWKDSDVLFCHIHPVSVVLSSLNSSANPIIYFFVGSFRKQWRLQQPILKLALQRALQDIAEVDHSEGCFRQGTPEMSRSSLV
Assay: MRGPRX2 Activity: IP-One HTRF antagonist assay in CHO cells stably expressing human MRGPRX2, versus Cortistatin-14
Conditions: versus 0.3 uM Cortistatin-14 agonist, IP-1 HTRF, read-out: MRGPR2 Antagonist Activity
pIC50: −log10 of the molar value.

Below, each entry is followed by its recorded pIC50 result.
{"Compound String": "Cn1cc(C(=O)N[C@H]2CC[C@@H](Nc3cccc4nc(C(F)F)cn34)CC2)c(C(F)F)n1", "Readout Label": "pIC50", "Test Result": "6.30 to 7.00"}
{"Compound String": "COc1ccc(C(=O)N[C@H]2CC[C@@H](Nc3cccc4nc(C(F)F)cn34)CC2)c(NCC(F)(F)F)c1", "Readout Label": "pIC50", "Test Result": "> 7.30"}
{"Compound String": "O=C(N[C@H]1CC[C@@H](Nc2cccc3nc(C(F)(F)F)cn23)CC1)c1c[nH]c2ccccc12", "Readout Label": "pIC50", "Test Result": "> 7.30"}
{"Compound String": "O=C(N[C@H]1CC[C@@H](Nc2cccc3nc(C(F)(F)F)cn23)CC1)c1cncc2cn[nH]c12", "Readout Label": "pIC50", "Test Result": "6.30 to 7.00"}
{"Compound String": "COc1ccc(C(=O)N[C@@H]2CCC[C@H](Nc3cc(Cl)cc4nc(C(F)(F)F)cn34)C2)cc1", "Readout Label": "pIC50", "Test Result": "7.00 to 7.29"}

Notebook entry, human MRGPRX2 (Homo sapiens) assay: pIC50 of `COc1ccc(C(=O)N[C@@H]2CCC[C@H](Nc3cccc4sc(C(F)(F)F)cc34)C2)cc1` = ?
6.30 to 7.00

Recall the recorded pIC50 for `COc1ccc(C(=O)N[C@@H]2CCC[C@H](Nc3cccc4sc(OC)cc34)C2)cc1` with human MRGPRX2 (Homo sapiens) and state it.
< 6.00
